# target.under.test: T1, human PDL1 protein (human, UniProt Q9NZQ7 19-238, limits assumed)
# T1 construct: also called plate-captured PD-L1
# assay.notes: titration ELISA, soluble His-tagged PD1 decoy on plate-coated human PD-L1, anti-His detection
recorded.endpoint: Affinity to PD-L1 (relative to WT PD1)

// worked examples, Affinity to PD-L1 (relative to WT PD1) included
5XD (receptor, PD1 decoy variant, bacterial, C-terminal 6xHis) MASDSPDRPWNPPTFSPALLVVTEGDNATFTCSFSNTSESFVLNWYRESPSNQVDRLAAFPEDRSQPGQDARFRVTQLPNGRDFHMSVVRARRNDSGTYFCGAISLAPKAKIKESLRAELRVTERRALEHHHHHH | 1.1 fold relative to WT PD1
6XC (receptor, PD1 decoy variant, bacterial, C-terminal 6xHis) MASDSPDRPWNPPTFSPALLVVTEGDNATFTCSFSNTSESFVLNWYRESPSNQVDRLAAFPEDRSQPGQDARFRVTQLPNGRDFHMSVVRARRNDSGTYICGAISLAPKWKIKESLRAELRVTERRALEHHHHHH | 1.1 fold relative to WT PD1
T_76D (receptor, PD1 decoy variant, bacterial, C-terminal 6xHis) MASDSPDRPWNPPTFSPALLVVTEGDNATFTCSFSNTSESFVLNWYRMSPSNQDDKLAAFPEDRSQPGQDARFRVTQLPNGRDFHMSVVRARRNDSGTYLCGAISLAPKAQIKESLRAELRVTERRALEHHHHHH | 8.3 fold relative to WT PD1

// for each binder below, give its Affinity to PD-L1 (relative to WT PD1)
1. Core L (receptor, PD1 decoy variant, bacterial, C-terminal 6xHis) MASDSPDRPWNPPTFSPALLVVTEGDNATFTCSFSNTSESFVLNWYRESPSNQDDRLAAFPEDRSQPGQDARFRVTQLPNGRDFHMSVVRARRNDSGTYECGAISLAPKLKIKESLRAELRVTERRALEHHHHHH
2. Q133K (receptor, PD1 decoy variant, bacterial, C-terminal 6xHis) MASDSPDRPWNPPTFSPALLVVTEGDNATFTCSFSNTSESFVLNWYRMSPSNQTDKLAAFPEDRSQPGQDARFRVTQLPNGRDFHMSVVRARRNDSGTYLCGAISLAPKAKIKESLRAELRVTERRALEHHHHHH
3. X1 4XMut (receptor, PD1 decoy variant, bacterial, C-terminal 6xHis) MASDSPDRPWNPPTFSPALLVVTEGDNATFTCSFSNTSESFVLNWYRESPSNQDDRLAAFPEDRSQPGQDARFRVTQLPNGRDFHMSVVRARRNDSGTYLCGAISLAPKAKIKESLRAELRVTERRALEHHHHHH
4. B2 4XB (receptor, PD1 decoy variant, bacterial, C-terminal 6xHis) MASDSPDRPWNPPTFSPALLVVTEGDNATFTCSFSNTSESFVLNWYRDSPSNQDDRLAAFPEDRSQPGQDARFRVTQLPNGRDFHMSVVRARRNDSGTYLCGAISLAPKAKIKESLRAELRVTERRALEHHHHHH
5. Core A (receptor, PD1 decoy variant, bacterial, C-terminal 6xHis) MASDSPDRPWNPPTFSPALLVVTEGDNATFTCSFSNTSESFVLNWYRESPSNQDDRLAAFPEDRSQPGQDARFRVTQLPNGRDFHMSVVRARRNDSGTYECGAISLAPKAKIKESLRAELRVTERRALEHHHHHH

RESULT:
["1.7 fold relative to WT PD1", "3 fold relative to WT PD1", "5.6 fold relative to WT PD1", "7.3 fold relative to WT PD1", "7.1 fold relative to WT PD1"]

// for each binder below, give its Affinity to PD-L1 (relative to WT PD1)
1. WT PD1 (receptor, Soluble monomeric protein made in bacteria with a C-terminal 6xHis tag and detected with anti-His antibody; also called WT PD1 decoy; WT PD-1 decoy) MASDSPDRPWNPPTFSPALLVVTEGDNATFTCSFSNTSESFVLNWYRMSPSNQTDKLAAFPEDRSQPGQDARFRVTQLPNGRDFHMSVVRARRNDSGTYLCGAISLAPKAQIKESLRAELRVTERRALEHHHHHH
2. A132W (receptor, PD1 decoy variant, bacterial, C-terminal 6xHis) MASDSPDRPWNPPTFSPALLVVTEGDNATFTCSFSNTSESFVLNWYRMSPSNQTDKLAAFPEDRSQPGQDARFRVTQLPNGRDFHMSVVRARRNDSGTYLCGAISLAPKWQIKESLRAELRVTERRALEHHHHHH
3. PD1_4XMUT_M70 (with 6xHis) (receptor) MASDSPDRPWNPPTFSPALLVVTEGDNATFTCSFSNTSESFVLNWYRMSPSNQDDRLAAFPEDRSQPGQDARFRVTQLPNGRDFHMSVVRARRNDSGTYFCGAISLAPKAKIKESLRAELRVTERRALEHHHHHH
4. PD1_4XMUT (with 6xHis) (receptor, Soluble monomeric, bacterial production) MASDSPDRPWNPPTFSPALLVVTEGDNATFTCSFSNTSESFVLNWYRESPSNQDDRLAAFPEDRSQPGQDARFRVTQLPNGRDFHMSVVRARRNDSGTYFCGAISLAPKAKIKESLRAELRVTERRALEHHHHHH

RESULT:
1. 1 fold relative to WT PD1
2. 3 fold relative to WT PD1
3. 10 fold relative to WT PD1
4. 5 fold relative to WT PD1

// for each binder below, give its Affinity to PD-L1 (relative to WT PD1)
1. PD1_6XD (with 6xHis) (receptor, Soluble monomeric, bacterial production) MASDSPDRPWNPPTFSPALLVVTEGDNATFTCSFSNTSESFVLNWYRESPSNQVDRLAAFPEDRSQPGQDARFRVTQLPNGRDFHMSVVRARRNDSGTYFCGAISLAPKWKIKESLRAELRVTERRALEHHHHHH
2. PD1_6XDM (with 6xHis) (receptor, Soluble monomeric, bacterial production) MASDSPDRPWNPPTFSPALLVVTEGDNATFTCSFSNTSESFVLNWYRMSPSNQVDRLAAFPEDRSQPGQDARFRVTQLPNGRDFHMSVVRARRNDSGTYFCGAISLAPKWKIKESLRAELRVTERRALEHHHHHH

RESULT:
1: 7.2 fold relative to WT PD1; 2: 7.5 fold relative to WT PD1
